Just for reference, patent US20250136722A1 is where these values come from.

Exercise: state measured pKd of Antibody for ARM Compound of Formula (I) for each of the compounds provided.
# system tested: Anti-cotinine antibody (SEQ ID NO: 11 / SEQ ID NO: 12, rabbit variable region with human IgG1 Fc domain)
# procedure details: Binding of anti-cotinine antibody to ARM compounds by SPR, Biacore T200, 37° C. (Example 202)
# condition summary: pH 7.4, rabbit variable region/human IgG1 Fc antibody captured on protein A
Write no unit; give the number alone.

input: # pKd of Antibody for ARM Compound of Formula (I) lookup, item `CC(C)N(C)[C@@H]1CC[C@H](N2CC[C@H](Nc3ncnc4ccc(C(F)(F)F)cc34)C2=O)[C@H](NC(=O)[C@H]2CC[C@@H](NC(=O)CCCC(=O)NCCCC(=O)NCCCNC(=O)[C@H]3CC(=O)N(C)[C@@H]3c3cccnc3)CC2)C1`
output: 9.3185

input: # iterate: `CC(C)N(C)[C@@H]1CC[C@H](N2CC[C@H](Nc3ncnc4ccc(C(F)(F)F)cc34)C2=O)[C@H](NC(=O)[C@H]2CC[C@@H](NC(=O)CCO[C@H]3CC[C@H](OCCNC(=O)[C@H]4CC(=O)N(C)[C@@H]4c4cccnc4)CC3)CC2)C1`
output: 9.343

###

Answer each item with its documented IC50.
# system tested: human alpha1 nicotinic acetylcholine (nACh) receptor (Homo sapiens, UniProt P02708+Q07001)
# Sequence (P02708 21-457): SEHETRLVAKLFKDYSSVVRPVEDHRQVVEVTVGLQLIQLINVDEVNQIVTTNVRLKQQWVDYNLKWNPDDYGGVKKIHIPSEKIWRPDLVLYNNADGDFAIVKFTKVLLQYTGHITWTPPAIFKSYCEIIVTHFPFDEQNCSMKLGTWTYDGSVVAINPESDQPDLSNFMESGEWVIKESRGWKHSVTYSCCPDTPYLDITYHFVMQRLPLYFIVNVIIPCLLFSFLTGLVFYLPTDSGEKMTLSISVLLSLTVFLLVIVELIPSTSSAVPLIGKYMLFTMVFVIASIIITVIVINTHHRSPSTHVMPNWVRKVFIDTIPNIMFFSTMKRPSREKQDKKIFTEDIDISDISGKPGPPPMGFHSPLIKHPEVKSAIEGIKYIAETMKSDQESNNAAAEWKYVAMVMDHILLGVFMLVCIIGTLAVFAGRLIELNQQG
# Sequence (P11230 24-501 partner): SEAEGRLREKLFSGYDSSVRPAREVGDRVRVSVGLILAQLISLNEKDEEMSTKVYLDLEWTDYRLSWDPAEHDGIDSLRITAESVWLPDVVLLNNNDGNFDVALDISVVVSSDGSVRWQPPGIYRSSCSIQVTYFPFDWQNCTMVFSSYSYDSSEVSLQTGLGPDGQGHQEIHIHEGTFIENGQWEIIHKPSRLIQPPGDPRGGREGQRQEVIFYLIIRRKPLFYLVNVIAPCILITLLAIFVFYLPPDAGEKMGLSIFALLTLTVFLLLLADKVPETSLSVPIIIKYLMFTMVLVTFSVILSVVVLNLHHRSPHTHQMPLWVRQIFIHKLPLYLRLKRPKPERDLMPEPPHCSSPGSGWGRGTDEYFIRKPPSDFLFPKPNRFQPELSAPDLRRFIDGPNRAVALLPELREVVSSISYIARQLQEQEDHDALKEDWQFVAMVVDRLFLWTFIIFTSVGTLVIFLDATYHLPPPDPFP
# Sequence (Q07001 22-517): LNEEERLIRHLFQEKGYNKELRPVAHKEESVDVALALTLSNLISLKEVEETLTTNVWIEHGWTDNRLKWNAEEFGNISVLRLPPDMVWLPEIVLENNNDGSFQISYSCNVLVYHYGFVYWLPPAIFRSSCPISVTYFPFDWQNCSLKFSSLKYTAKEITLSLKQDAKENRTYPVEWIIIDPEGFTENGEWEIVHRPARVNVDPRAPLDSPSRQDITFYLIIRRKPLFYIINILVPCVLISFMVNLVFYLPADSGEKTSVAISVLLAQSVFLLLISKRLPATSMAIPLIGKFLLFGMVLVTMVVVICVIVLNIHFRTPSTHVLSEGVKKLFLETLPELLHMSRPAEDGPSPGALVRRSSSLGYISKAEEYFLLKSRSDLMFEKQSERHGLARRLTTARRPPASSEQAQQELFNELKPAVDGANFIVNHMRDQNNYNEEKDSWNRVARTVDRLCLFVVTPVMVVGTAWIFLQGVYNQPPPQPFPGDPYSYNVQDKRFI
# procedure details: Nicotinic acetylcholine receptor antagonism assay, IONFlux automated patch clamp (Example 203)
# condition summary: nAChR antagonism; ACh stimulated; patch clamp
Numeric only. Scale: µM

input: Need IC50, item `CC(C)N(C)[C@@H]1CC[C@H](N2CC[C@H](Nc3ncnc4ccc(C(F)(F)F)cc34)C2=O)[C@H](NC(=O)COCCNC(=O)COCCNC(=O)COCCNC(=O)[C@H]2CC(=O)N(C)[C@@H]2c2cccnc2)C1`
output: 52.9

input: What do you have for `CC(C)N(C)[C@@H]1CC[C@H](N2CC[C@H](Nc3ncnc4ccc(C(F)(F)F)cc34)C2=O)[C@H](NC(=O)CCOCCNC(=O)COCCNC(=O)COCCNC(=O)[C@H]2CC(=O)N(C)[C@@H]2c2cccnc2)C1` ?
output: 66.1

input: Follow-up entry: `CC(C)N(C)[C@@H]1CC[C@H](N2CC[C@H](Nc3ncnc4ccc(C(F)(F)F)cc34)C2=O)[C@H](NC(=O)CCNC(=O)CCCOC[C@H]2CC[C@@H](COCCNC(=O)[C@H]3CC(=O)N(C)[C@@H]3c3cccnc3)CC2)C1`
output: 29

input: Now the molecule `CC(C)N(C)[C@@H]1CC[C@H](N2CC[C@H](Nc3ncnc4ccc(C(F)(F)F)cc34)C2=O)[C@H](NC(=O)[C@H]2C[C@@H](NC(=O)CCCO[C@H]3CC[C@H](OCCNC(=O)[C@H]4CC(=O)N(C)[C@@H]4c4cccnc4)CC3)C2)C1`
output: 82

###

# system tested: Anti-cotinine antibody (SEQ ID NO: 11 / SEQ ID NO: 12, rabbit variable region with human IgG1 Fc domain)
# procedure details: Binding of anti-cotinine antibody to ARM compounds by SPR, Biacore T200, 37° C. (Example 202)
# condition summary: pH 7.4, rabbit variable region/human IgG1 Fc antibody captured on protein A
observed property: pKd of Antibody for ARM Compound of Formula (I)
Hey, just send me the number, nothing else.

input: Fill in: pKd of Antibody for ARM Compound of Formula (I) of `CCN1C(=O)C[C@H](C(=O)NCCOCCOCCOCCC(=O)N[C@H]2CC[C@@H](C(=O)N[C@@H]3C[C@H](NC(C)(C)C)CC[C@@H]3N3CC[C@H](Nc4ncnc5ccc(C(F)(F)F)cc45)C3=O)CC2)[C@H]1c1cccnc1` is ___
output: 9.785

input: Lookup `CC(C)N(C)[C@@H]1CC[C@H](N2CC[C@H](Nc3ncnc4ccc(C(F)(F)F)cc34)C2=O)[C@H](NC(=O)[C@H]2CC[C@@H](NC(=O)COCCOCCNC(=O)CNC(=O)[C@H]3CC(=O)N(C)[C@@H]3c3cccnc3)CC2)C1`
output: 8.7865

input: Another compound to check: `CC(C)N(C)[C@@H]1CC[C@H](N2CC[C@H](Nc3ncnc4ccc(C(F)(F)F)cc34)C2=O)[C@H](NC(=O)COCCNC(=O)[C@H]2CC[C@@H](NC(=O)CCOCCNC(=O)[C@H]3CC(=O)N(C)[C@@H]3c3cccnc3)CC2)C1`
output: 8.951

input: `CC(C)N(C)[C@@H]1CC[C@H](N2CC[C@H](Nc3ncnc4ccc(C(F)(F)F)cc34)C2=O)[C@H](NC(=O)COCCOCCNC(=O)COCCNC(=O)CCNC(=O)[C@H]2CC(=O)N(C)[C@@H]2c2cccnc2)C1` , same question.
output: 9.091

input: // query: `CC(C)N(C)[C@@H]1CC[C@H](N2CC[C@H](Nc3ncnc4ccc(C(F)(F)F)cc34)C2=O)[C@H](NC(=O)CCNC2CCC3(CC2)CCN(CCCNC(=O)[C@H]2CC(=O)N(C)[C@@H]2c2cccnc2)CC3)C1`
output: 9.0865

input: Can you handle `CC(C)N(C)[C@@H]1CC[C@H](N2CC[C@H](Nc3ncnc4ccc(C(F)(F)F)cc34)C2=O)[C@H](NC(=O)[C@H]2CC[C@@H](NC(=O)CCOCCNC(=O)COCCCNC(=O)[C@H]3CC(=O)N(C)[C@@H]3c3cccnc3)CC2)C1` next?
output: 9.244

input: Then this compound: `CC(C)N(C)[C@@H]1CC[C@H](N2CC[C@H](Nc3ncnc4ccc(C(F)(F)F)cc34)C2=O)[C@H](NC(=O)C2CCN(C3CCN(C(=O)CCCCCCCCCNC(=O)[C@@H]4CC(=O)N(C)[C@H]4c4cccnc4)CC3)CC2)C1`
output: 10.135

input: Try this compound next: `CN1C(=O)C[C@H](C(=O)NCCOCCOCCOCCC(=O)N[C@H]2CC[C@H](C(=O)N[C@@H]3C[C@H](NC(C)(C)C)CC[C@@H]3N3CC[C@H](Nc4ncnc5ccc(C(F)(F)F)cc45)C3=O)CC2)[C@H]1c1cccnc1`
output: 9.3015
